# targetEntity: CCR4 (Homo sapiens)
# Construct: host or cells: CHO-K1
# Sequence (P51679 1-360): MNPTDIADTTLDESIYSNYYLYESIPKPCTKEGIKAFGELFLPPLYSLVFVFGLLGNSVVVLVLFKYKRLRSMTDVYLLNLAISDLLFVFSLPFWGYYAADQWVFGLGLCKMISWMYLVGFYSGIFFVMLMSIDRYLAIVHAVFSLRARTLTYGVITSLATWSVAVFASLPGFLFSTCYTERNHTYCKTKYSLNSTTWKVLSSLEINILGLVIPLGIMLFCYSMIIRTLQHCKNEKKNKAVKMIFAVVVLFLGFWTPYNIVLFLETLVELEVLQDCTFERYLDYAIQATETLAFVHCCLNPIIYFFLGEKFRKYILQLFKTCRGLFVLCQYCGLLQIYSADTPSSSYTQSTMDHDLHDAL
# assayProtocol: PathHunter eXpress CCR4 CHO-K1 β-Arrestin GPCR Assay, antagonist format with CCL22
# Assay type: cell-based
# experimentalParameters: 10 nM CCL22, 16.7 uM
reportedEndpoint: Raw Data

Known results for sequences:
1) ACQLTCLTPARQPGCA [24-14-00-N001, bicyclic peptide ligand, TATA scaffold, from CCR4 cell-based selection] : 132736
2) ACLSCARHGNQCA [24-12-00-N001, bicyclic peptide ligand, TATA scaffold, from CCR4 cell-based selection] : 163675
3) ACPLMSSVNCTAGCA [24-13-00-N001, bicyclic peptide ligand, TBMB scaffold, from CCR4 cell-based selection] : 179127
4) ACLNGCRNTNSQCA [24-11-00-N001, bicyclic peptide ligand, TATA scaffold, from CCR4 cell-based selection] : 127180

a = ACQTLCNTAEDIRCA [24-16-00-N001, bicyclic peptide ligand, TBMB scaffold, from CCR4 cell-based selection]
b = ACQLTCLPPPRQPGCA [24-15-00-N001, bicyclic peptide ligand, TATA scaffold, from CCR4 cell-based selection]
Input: Which value of Raw Data is greater, the one for a or the one for b ? Which one? Tell me its label.
Output: a
(a: 167890, b: 94688)

* * *

# targetEntity: CCR4 (Homo sapiens, UniProt P51679)
# Construct: host or cells: CHO-K1
# Sequence (P51679 1-360): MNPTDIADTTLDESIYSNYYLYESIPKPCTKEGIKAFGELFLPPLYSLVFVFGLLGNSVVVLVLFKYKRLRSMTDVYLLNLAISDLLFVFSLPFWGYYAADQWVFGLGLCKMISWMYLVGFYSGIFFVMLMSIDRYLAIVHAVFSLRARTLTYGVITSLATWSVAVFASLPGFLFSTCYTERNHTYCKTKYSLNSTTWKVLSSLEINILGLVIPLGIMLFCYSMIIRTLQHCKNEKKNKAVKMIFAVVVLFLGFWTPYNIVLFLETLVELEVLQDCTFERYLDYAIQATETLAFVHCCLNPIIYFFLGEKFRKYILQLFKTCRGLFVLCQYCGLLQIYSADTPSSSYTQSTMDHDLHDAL
# assayProtocol: PathHunter eXpress CCR4 CHO-K1 β-Arrestin GPCR Assay, antagonist format with CCL22
# Format: cell-based
# experimentalParameters: 1 nM CCL22, 0.023 uM
reportedEndpoint: Raw Data

1) ACQLTCLTPARQPGCA [24-14-00-N001, bicyclic peptide ligand, TATA scaffold, from CCR4 cell-based selection] : 212035
2) ACQLTCLPPPRQPGCA [24-15-00-N001, bicyclic peptide ligand, TATA scaffold, from CCR4 cell-based selection] : 265078
3) ACQTLCNTAEDIRCA [24-16-00-N001, bicyclic peptide ligand, TBMB scaffold, from CCR4 cell-based selection] : 247868
4) ACLNGCRNTNSQCA [24-11-00-N001, bicyclic peptide ligand, TATA scaffold, from CCR4 cell-based selection] : 155622
5) ACRAVHSLRCLTTCA [24-17-00-N001, bicyclic peptide ligand, TATA scaffold, from CCR4 cell-based selection] : 285103
6) ACPLMSSVNCTAGCA [24-13-00-N001, bicyclic peptide ligand, TBMB scaffold, from CCR4 cell-based selection] : 219415
7) ACLSCARHGNQCA [24-12-00-N001, bicyclic peptide ligand, TATA scaffold, from CCR4 cell-based selection] : 200429
